# assay_procedure: Cmax in Sprague-Dawley rat plasma at 10 ug,IT(Intratracheal) by HPLC-MS/MS analysis
# Format: ADME, cell-free
# Design: dose 10 µg, route it(Intratracheal)
# conditions_used: inhaled or intranasal
reported_endpoint: Cmax (ng/mL)
Numbers only, in ng/mL.

Task: What measured Cmax goes with `CCOc1cc([C@H](Cc2c(Cl)c[n+]([O-])cc2Cl)OC(=O)c2ccc(CN[C@@](CO)(C(=O)O[C@H]3CN4CCC3CC4)c3ccccc3)s2)ccc1OC` ?
Result: 2

====

Record form. Attribute: pIC50. Fill in for each entry.
# experimental_system: 3',5'-cyclic-AMP phosphodiesterase 4B (Homo sapiens)
# assay_procedure: Inhibition of human recombinant PDE4B2 expressed in baculovirus expression system using cAMP as substrate incubated for 2 hrs by HTRF assay
Answers are plain numbers, as −log10 of the molar value.

| compound | pIC50 |
| --- | --- |
| COc1ccc([C@H](Cc2c(Cl)c[n+]([O-])cc2Cl)OC(=O)c2ccc(CNC(C)(C(=O)O[C@H]3CN4CCC3CC4)c3ccccc3)s2)cc1OC (stereo in doubt; 1f) | 8.40 |

Value sought for every listed compound: pIC50.
1. COc1ccc([C@H](Cc2c(Cl)c[n+]([O-])cc2Cl)OC(=O)c2ccc(CN[C@@H](C(=O)O[C@H]3CN4CCC3CC4)c3ccccc3)s2)cc1OC
2. CCOc1cc([C@H](Cc2c(Cl)c[n+]([O-])cc2Cl)OC(=O)c2ccc(CN[C@](CO)(C(=O)O[C@H]3CN4CCC3CC4)c3ccccc3)s2)ccc1OC

Result:
1. 8.80
2. 9.20

====

For reference, Ki measured on UniProtKB P20309:
Numbers only, in nM.

Report Ki for every entry below.
1. COc1cc(C(=O)O[C@@H](Cc2c(Cl)c[n+]([O-])cc2Cl)c2ccc(OC)c(OC)c2)ccc1CNC(C(=O)O[C@H]1CN2CCC1CC2)c1ccccc1 (stereo partly specified)
2. CCOc1cc(C(=O)O[C@@H](Cc2c(Cl)c[n+]([O-])cc2Cl)c2ccc(OC)c(OC)c2)ccc1CNC(C(=O)O[C@H]1CN2CCC1CC2)c1ccccc1 (stereo partly specified)
3. COc1ccc([C@H](Cc2c(Cl)c[n+]([O-])cc2Cl)OC(=O)c2ccc(CNC(C(=O)O[C@H]3CN4CCC3CC4)c3ccccc3)c(OCC3CC3)c2)cc1OC (stereo partly specified)
4. COCC(NCc1ccc(C(=O)O[C@@H](Cc2c(Cl)c[n+]([O-])cc2Cl)c2ccc(OC)c(OC)c2)s1)(C(=O)O[C@H]1CN2CCC1CC2)c1ccccc1 (stereo in doubt; 4f)
5. COc1ccc([C@H](Cc2c(Cl)c[n+]([O-])cc2Cl)OC(=O)c2ccc(CNC(CO)(C(=O)O[C@H]3CN4CCC3CC4)c3ccccc3)s2)cc1OCC1CC1 (stereo in doubt; 11f)
6. COc1ccc([C@H](Cc2c(Cl)c[n+]([O-])cc2Cl)OC(=O)c2ccc(CNC(CO)(C(=O)O[C@H]3CN4CCC3CC4)c3ccccc3)s2)cc1OC (stereo in doubt; 3s)

Result:
[0.631, 1, 2.51, 3.16, 0.398, 0.2]

====

Would you kindly list IC50 for each of these compounds?
# experimental_system: 3',5'-cyclic-AMP phosphodiesterase 4B (Homo sapiens, UniProt Q07343)
# Sequence (Q07343 whole entry): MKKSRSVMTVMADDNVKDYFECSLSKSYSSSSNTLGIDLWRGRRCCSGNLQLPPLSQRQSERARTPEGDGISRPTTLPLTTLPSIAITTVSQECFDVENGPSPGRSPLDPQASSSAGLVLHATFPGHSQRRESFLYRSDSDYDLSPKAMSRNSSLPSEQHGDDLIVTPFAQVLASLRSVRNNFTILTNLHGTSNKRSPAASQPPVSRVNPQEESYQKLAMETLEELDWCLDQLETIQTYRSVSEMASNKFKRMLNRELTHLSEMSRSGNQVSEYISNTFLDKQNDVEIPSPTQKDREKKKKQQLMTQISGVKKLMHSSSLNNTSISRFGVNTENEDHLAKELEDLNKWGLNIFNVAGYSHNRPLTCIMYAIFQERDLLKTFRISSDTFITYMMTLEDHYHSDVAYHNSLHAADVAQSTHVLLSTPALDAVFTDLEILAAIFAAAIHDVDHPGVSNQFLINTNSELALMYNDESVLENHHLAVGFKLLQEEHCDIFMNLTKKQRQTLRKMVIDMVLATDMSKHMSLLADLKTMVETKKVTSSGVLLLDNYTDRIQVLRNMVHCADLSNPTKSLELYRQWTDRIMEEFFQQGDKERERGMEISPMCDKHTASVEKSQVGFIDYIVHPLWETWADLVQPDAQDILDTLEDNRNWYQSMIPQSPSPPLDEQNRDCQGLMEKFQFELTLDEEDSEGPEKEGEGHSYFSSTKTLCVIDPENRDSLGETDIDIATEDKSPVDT
# assay_procedure: Inhibition of human recombinant PDE4B2 expressed in baculovirus expression system using cAMP as substrate incubated for 2 hrs by HTRF assay
One number for each entry, in nM.

Consider the following illustrative entries.
| compound | IC50, nM |
| --- | --- |
| CCOc1cc(C(=O)O[C@@H](Cc2c(Cl)c[n+]([O-])cc2Cl)c2ccc(OC)c(OC)c2)ccc1CNC(C(=O)O[C@H]1CN2CCC1CC2)c1ccccc1 (stereo partly drawn) | 7.94 |
| COc1ccc([C@H](Cc2c(Cl)c[n+]([O-])cc2Cl)OC(=O)c2ccc(CNC(CO)(C(=O)O[C@H]3CN4CCC3CC4)c3ccccc3)s2)cc1OC (stereo in doubt; 3f) | 0.631 |

Please look at the following compound next.
Task: Give its IC50 value. Item: CCC(NCc1ccc(C(=O)O[C@@H](Cc2c(Cl)c[n+]([O-])cc2Cl)c2ccc(OC)c(OC)c2)s1)(C(=O)O[C@H]1CN2CCC1CC2)c1ccccc1 (stereo in doubt; 2f)
Result: 2.51
